Tested on: A549 cells
Assay: Intracellular GSH levels by HPLC-EC in A549 cells
Format: cell-based, human
Details: Homo sapiens; A549, 50 μM, 24 hours treatment; read-out: Int. GSH % con.
Lab note: anything with activity at 50 µM at or over 50% counts as Y; the rest go in N.

Prompt line: Has COc1cc([C@@H]2c3cc4c(cc3[C@@H](O[C@@H]3O[C@@H]5CO[C@@H](C)O[C@H]5[C@H](O)[C@H]3O)[C@H]3COC(=O)[C@H]23)OCO4)cc(OC)c1O [Etoposide, reference compound] a recorded activity at 50 µM greater than or equal to 50%?
Response line: Y

Prompt line: Likewise for C=C(C)[C@H]1Cc2c(ccc3c2O[C@@H]2COc4cc(OC)c(OC)cc4[C@@H]2C3=O)O1 [Rotenone, reference compound] ?
Response line: Y

Prompt line: Likewise for COc1ccc(CCN(C)CCCC(C#N)(c2ccc(OC)c(OC)c2)C(C)C)cc1OC (racemic) [Verapamil, (±)-verapamil, reference compound] ?
Response line: N

Prompt line: Likewise for O=c1cc(-c2ccccc2)oc2cc(O)c(O)c(O)c12 [Baicalein, 5,6,7 trihydroxyflavone] ?
Response line: N

Prompt line: Likewise for COc1cc(/C=C/C(=O)CC(=O)/C=C/c2ccc(O)c(OC)c2)ccc1O [Curcumin, reference compound] ?
Response line: Y

====

Tested on: A549 cells
Assay: Intracellular GSH levels by HPLC-EC in A549 cells
Type: cell-based, human
Settings: A549, 25 μM, 2 h
For each of the compounds below, state its Intracellular GSH levels, % compared to control.
Write it as a number; the unit % goes unstated.

Prompt line: Intracellular GSH levels, % compared to control lookup needed for O=C(/C=C/c1ccccc1)c1ccc(O)cc1O [2′,4′-DHC, 2′ 4′ dihydroxychalcone] , thanks.
Response line: 22.0

Prompt line: Likewise for C[C@]12CC[C@@H]3c4cc(O)c(O)cc4CC[C@H]3[C@@H]1CC[C@@H]2O [2-HE, 2-hydroxyestradiol, reference compound] ?
Response line: 69.0

====

Tested on: HL-60 cells
Assay: Intracellular GSH levels by HPLC-EC in HL-60 cells
Type: cell-based, human
Conditions: Homo sapiens; HL-60, 50 μM, 24 hours treatment; read-out: Int. GSH % con.
For each of the compounds below, state its activity at 50 µM.
Write it as a number; the unit % goes unstated.

Prompt line: activity at 50 µM lookup needed for O=c1cc(-c2ccccc2)oc2ccccc12 , thanks.
Response line: 85

Prompt line: Likewise for O=c1c(O)c(-c2ccc(O)c(O)c2)oc2cc(O)ccc12 ?
Response line: 16

Prompt line: Likewise for O=c1cc(-c2ccccc2)oc2cc(O)cc(O)c12 [Chrysin, 5,7 dihydroxyflavone] ?
Response line: 40

Prompt line: Likewise for O=c1c(O)c(-c2ccccc2)oc2cc(O)cc(O)c12 [Galangin, 3,5,7 trihydroxyflavone] ?
Response line: 69

Prompt line: Likewise for O=c1cc(-c2ccccc2)oc2cc(O)ccc12 [7-HF, 7-Hydroxyflavone] ?
Response line: 56

====

Tested on: PC-3 cells
Assay: Cytotoxicity as LDH release in PC-3 cells
Format: cell-based, human
Conditions: Homo sapiens; PC-3, 50 μM, 48 hours treatment; read-out: LDH rel. % con.
For each of the molecules below, state its LDH release, % of control at 50 µM.
Write it as a number; the unit % goes unstated.

Prompt line: LDH release, % of control at 50 µM lookup needed for O=C(/C=C/c1ccccc1)c1ccccc1 , thanks.
Response line: 229

Prompt line: Likewise for O=c1cc(-c2ccccc2)oc2cc(O)c(O)c(O)c12 [Baicalein, 5,6,7 trihydroxyflavone] ?
Response line: 94

Prompt line: Likewise for COc1ccc2c(c1)c(CC(=O)O)c(C)n2C(=O)c1ccc(Cl)cc1 [Indomethacin, reference compound] ?
Response line: 122

Prompt line: Likewise for COc1cc([C@@H]2c3cc4c(cc3[C@@H](O[C@@H]3O[C@@H]5CO[C@@H](C)O[C@H]5[C@H](O)[C@H]3O)[C@H]3COC(=O)[C@H]23)OCO4)cc(OC)c1O [Etoposide, reference compound] ?
Response line: 124

Prompt line: Likewise for Oc1cc(O)c2c(c1)O[C@H](c1ccc(O)c(O)c1)[C@H](O)C2 [Epicatechin, (−)-epicatechin] ?
Response line: 88

Prompt line: Likewise for CN(C)C(=O)CCSC(SCCC(=O)O)c1cccc(/C=C/c2ccc3ccc(Cl)cc3n2)c1 (stereo not shown) [MK-571, reference compound] ?
Response line: 143

Prompt line: Likewise for O=c1cc(-c2ccccc2)oc2ccccc12 ?
Response line: 91
